Target: UniProtKB P10635
Sequence (P10635 whole entry): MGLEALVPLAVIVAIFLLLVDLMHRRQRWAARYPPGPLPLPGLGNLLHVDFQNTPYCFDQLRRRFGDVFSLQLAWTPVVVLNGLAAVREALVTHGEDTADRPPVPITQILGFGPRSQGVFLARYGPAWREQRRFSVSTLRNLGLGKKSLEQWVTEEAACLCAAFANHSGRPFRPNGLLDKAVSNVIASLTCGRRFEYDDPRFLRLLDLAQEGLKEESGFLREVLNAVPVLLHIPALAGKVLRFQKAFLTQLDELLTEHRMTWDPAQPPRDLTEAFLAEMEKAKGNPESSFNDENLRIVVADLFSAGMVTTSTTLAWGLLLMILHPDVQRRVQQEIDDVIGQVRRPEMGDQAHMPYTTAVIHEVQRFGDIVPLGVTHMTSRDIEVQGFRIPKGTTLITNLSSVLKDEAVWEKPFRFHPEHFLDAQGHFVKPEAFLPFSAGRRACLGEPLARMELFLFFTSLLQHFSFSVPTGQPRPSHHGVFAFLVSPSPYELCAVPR
Experiment: in vitro
Settings: recombinant CYP2D6
# cutoff 10% applies to inhibition at 10 µM; >= gives Condition met, < gives Condition not met

| compound | class-assignment |
| --- | --- |
| Fc1cc(C(CC2CNC2)Oc2ccccc2Cl)ccc1Cl (configuration not stated) | Condition met |
| Fc1cc(C(CC2CNC2)Oc2cccc(Cl)c2)ccc1Cl (configuration not stated) | Condition not met |
| Cc1cccc(OC(CC2CNC2)c2ccc(Cl)c(F)c2)c1 (configuration not stated) | Condition met |
| Fc1cccc(OC(CC2CNC2)c2ccc(Cl)c(F)c2)c1 (configuration not stated) | Condition met |
| Cc1ccccc1OC(CC1CNC1)c1ccc(Cl)c(F)c1 (configuration not stated) | Condition met |

Problem: Is inhibition at 10 µM at least 10%? Consider Fc1cc(C(CC2CNC2)Oc2ccccc2F)ccc1Cl (configuration not stated)
Result: Condition not met

----------
Molecular target: UniProtKB P33261
Sequence (P33261 whole entry): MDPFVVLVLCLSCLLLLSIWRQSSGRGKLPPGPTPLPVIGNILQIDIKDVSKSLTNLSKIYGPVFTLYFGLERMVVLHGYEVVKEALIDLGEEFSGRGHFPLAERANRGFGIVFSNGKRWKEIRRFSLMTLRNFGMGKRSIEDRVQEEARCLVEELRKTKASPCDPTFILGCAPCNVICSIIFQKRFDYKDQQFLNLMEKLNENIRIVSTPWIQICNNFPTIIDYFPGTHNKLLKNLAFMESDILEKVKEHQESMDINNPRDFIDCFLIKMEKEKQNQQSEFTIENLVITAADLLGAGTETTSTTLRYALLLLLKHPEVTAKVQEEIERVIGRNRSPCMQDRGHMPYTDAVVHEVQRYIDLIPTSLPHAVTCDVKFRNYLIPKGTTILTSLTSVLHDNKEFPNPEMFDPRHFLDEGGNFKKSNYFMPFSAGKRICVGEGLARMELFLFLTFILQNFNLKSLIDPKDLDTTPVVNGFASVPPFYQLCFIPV
Test: in vitro
Settings: recombinant CYP2C19
Measured inhibition at 10 µM values are reported for all entries that follow.
Number only, in %; omit the unit.

# annotated cases, reported inhibition at 10 µM shown
| compound | system-name | display-unit | inhibition at 10 µM |
| --- | --- | --- | --- |
| Fc1cc(C(CC2CNC2)Oc2cccc(Cl)c2)ccc1Cl (stereo not drawn) | UniProtKB P33261 | % | 3.3 |
| Fc1cc(C(CC2CNC2)Oc2ccccc2Cl)ccc1Cl (stereo not drawn) | UniProtKB P33261 | % | 7.4 |
| Cc1ccc(OC(CC2CNC2)c2ccc(Cl)c(F)c2)cc1 (stereo not drawn) | UniProtKB P33261 | % | 7.6 |
| Fc1cccc(OC(CC2CNC2)c2ccc(Cl)c(F)c2)c1 (stereo not drawn) | UniProtKB P33261 | % | 6.4 |
| Clc1ccc(COC(Cn2ccnc2)c2ccc(Cl)cc2Cl)c(Cl)c1 (stereo not drawn) | UniProtKB P33261 | % | 8.6 |

The value of inhibition at 10 µM measured for the compound Cc1cccc(OC(CC2CNC2)c2ccc(Cl)c(F)c2)c1 (stereo not drawn) turned out to be 5.5

The value of inhibition at 10 µM measured for the compound Fc1cc(C(CC2CNC2)Oc2ccccc2F)ccc1Cl (stereo not drawn) turned out to be 7

The value of inhibition at 10 µM measured for the compound Cc1ccccc1OC(CC1CNC1)c1ccc(Cl)c(F)c1 (stereo not drawn) turned out to be 14

----------
IC50 values recorded for Cytochrome P450 1A2 (Homo sapiens)
Number only, in µM; omit the unit.

# annotated cases, reported IC50 shown
| molecule | display-unit | IC50 |
| --- | --- | --- |
| Fc1cccc(OC(CC2CNC2)c2ccc(Cl)c(F)c2)c1 (centres undefined) | µM | 13 |
| Fc1ccc(OC(CC2CNC2)c2ccc(Cl)c(F)c2)cc1 (centres undefined) | µM | 19 |
| Fc1cc(C(CC2CNC2)Oc2ccccc2F)ccc1Cl (centres undefined) | µM | 44 |

# evaluate next
Summary line: Fc1cc(C(CC2CNC2)Oc2cccc(Cl)c2)ccc1Cl (centres undefined) , Cytochrome P450 1A2 (Homo sapiens), reported IC50 = 15

----------
Assay: Stability in human liver microsomes assessed as compound remaining at 1 uM after 30 mins by LC/MS analysis
Assay type: ADME
Details: read-out: Stability
Measured remaining at 0.5 h, 1 µM values are reported for all entries that follow.
Give the figure together with its unit, number first.

# annotated cases, reported remaining at 0.5 h, 1 µM shown
| compound | assay-result |
| --- | --- |
| Cc1cccc(OC(CC2CNC2)c2ccc(Cl)c(Cl)c2)c1 (stereo unspecified) | 62% |
| Cc1ccccc1OC(CC1CNC1)c1ccc(Cl)c(Cl)c1 (stereo unspecified) | 89% |
| Cc1cccc(OC(CC2CNC2)c2ccc(Cl)c(F)c2)c1 (stereo unspecified) | 36% |
| Cc1ccccc1OC(CC1CNC1)c1ccc(Cl)c(F)c1 (stereo unspecified) | 59% |
| Clc1ccc([C@]23CNC[C@H]2C3)cc1Cl [AMITIFADINE] | 67% |
| Fc1cc(C(CC2CNC2)Oc2ccccc2)ccc1Cl (stereo unspecified) | 41% |
| Fc1cccc(OC(CC2CNC2)c2ccc(Cl)c(F)c2)c1 (stereo unspecified) | 73% |
| Fc1ccc(OC(CC2CNC2)c2ccc(Cl)c(F)c2)cc1 (stereo unspecified) | 85% |
| Fc1cc(C(CC2CNC2)Oc2cccc(Cl)c2)ccc1Cl (stereo unspecified) | 57% |
| COCC(=O)O[C@]1(CCN(C)CCCc2nc3ccccc3[nH]2)CCc2cc(F)ccc2[C@@H]1C(C)C [MIBEFRADIL] | 43% |

The value of remaining at 0.5 h, 1 µM measured for the compound Cc1ccc(OC(CC2CNC2)c2ccc(Cl)c(F)c2)cc1 (stereo unspecified) turned out to be 59%

----------
Target: Sodium-dependent noradrenaline transporter (Homo sapiens, UniProt P23975)
Sequence (P23975 whole entry): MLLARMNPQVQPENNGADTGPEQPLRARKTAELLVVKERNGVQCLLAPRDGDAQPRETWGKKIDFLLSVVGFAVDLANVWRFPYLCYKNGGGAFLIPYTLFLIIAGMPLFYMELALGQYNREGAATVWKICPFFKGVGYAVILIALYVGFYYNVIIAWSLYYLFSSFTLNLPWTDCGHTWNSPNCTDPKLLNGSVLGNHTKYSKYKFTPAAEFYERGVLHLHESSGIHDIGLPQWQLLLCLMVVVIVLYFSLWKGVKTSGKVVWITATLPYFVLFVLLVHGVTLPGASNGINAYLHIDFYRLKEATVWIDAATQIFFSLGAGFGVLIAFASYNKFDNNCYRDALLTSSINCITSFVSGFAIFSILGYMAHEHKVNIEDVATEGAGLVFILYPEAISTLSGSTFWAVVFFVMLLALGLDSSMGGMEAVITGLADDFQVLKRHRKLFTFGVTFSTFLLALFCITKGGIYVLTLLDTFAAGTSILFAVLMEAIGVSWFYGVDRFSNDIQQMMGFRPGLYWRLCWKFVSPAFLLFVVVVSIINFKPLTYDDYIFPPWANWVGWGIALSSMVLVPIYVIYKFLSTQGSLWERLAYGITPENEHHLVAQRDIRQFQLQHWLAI
Experiment: Ratio of venlafaxine IC50 to compound IC50 for norepinephrine reuptake at human NET expressed in HEK293 cells at 0.1 uM after 15 mins by fluorescence neurotransmitter transporter assay
Type: cell-based
Measured Ratio IC50 values are reported for all entries that follow.

| molecule | result-type | assay-result |
| --- | --- | --- |
| Fc1cccc(OC(CC2CNC2)c2ccc(Cl)c(F)c2)c1 (configuration not stated) | Ratio IC50 | > 7 |
| Fc1ccc(OC(CC2CNC2)c2ccc(Cl)c(F)c2)cc1 (configuration not stated) | Ratio IC50 | > 7 |
| Fc1cc(C(CC2CNC2)Oc2cccc(Cl)c2)ccc1Cl (configuration not stated) | Ratio IC50 | > 7 |

The value of Ratio IC50 measured for the molecule Fc1ccc(OC(CC2CNC2)c2ccc(Cl)c(Cl)c2)cc1 (configuration not stated) turned out to be > 7

The value of Ratio IC50 measured for the molecule Fc1cc(C(CC2CNC2)Oc2ccccc2F)ccc1Cl (configuration not stated) turned out to be > 7

The value of Ratio IC50 measured for the molecule Fc1ccccc1OC(CC1CNC1)c1ccc(Cl)c(Cl)c1 (configuration not stated) turned out to be > 7

The value of Ratio IC50 measured for the molecule Clc1ccc(C(CC2CNC2)Oc2ccccc2)cc1Cl (configuration not stated) turned out to be > 7

----------
Target: UniProtKB P05177
Experiment: in vitro
Details: recombinant CYP1A2
# cutoff 40% applies to inhibition at 10 µM; >= gives True, < gives False

Example results:
| molecule | class-assignment |
| --- | --- |
| Fc1cc(C(CC2CNC2)Oc2ccccc2Cl)ccc1Cl (stereo not drawn) | True |
| Cc1ccc(OC(CC2CNC2)c2ccc(Cl)c(F)c2)cc1 (stereo not drawn) | True |
| Cc1cccc(OC(CC2CNC2)c2ccc(Cl)c(F)c2)c1 (stereo not drawn) | True |
| O=c1cc(-c2ccccc2)oc2c1ccc1ccccc12 [ALPHA-NAPHTHOFLAVONE] | False |
| Fc1cccc(OC(CC2CNC2)c2ccc(Cl)c(F)c2)c1 (stereo not drawn) | False |

Problem: Is inhibition at 10 µM at least 40%? Consider Cc1ccccc1OC(CC1CNC1)c1ccc(Cl)c(F)c1 (stereo not drawn)
Result: True

Problem: Is inhibition at 10 µM at least 40%? Consider Fc1cc(C(CC2CNC2)Oc2ccccc2F)ccc1Cl (stereo not drawn)
Result: False

----------
Molecular target: UniProt P11712
Sequence (P11712 whole entry): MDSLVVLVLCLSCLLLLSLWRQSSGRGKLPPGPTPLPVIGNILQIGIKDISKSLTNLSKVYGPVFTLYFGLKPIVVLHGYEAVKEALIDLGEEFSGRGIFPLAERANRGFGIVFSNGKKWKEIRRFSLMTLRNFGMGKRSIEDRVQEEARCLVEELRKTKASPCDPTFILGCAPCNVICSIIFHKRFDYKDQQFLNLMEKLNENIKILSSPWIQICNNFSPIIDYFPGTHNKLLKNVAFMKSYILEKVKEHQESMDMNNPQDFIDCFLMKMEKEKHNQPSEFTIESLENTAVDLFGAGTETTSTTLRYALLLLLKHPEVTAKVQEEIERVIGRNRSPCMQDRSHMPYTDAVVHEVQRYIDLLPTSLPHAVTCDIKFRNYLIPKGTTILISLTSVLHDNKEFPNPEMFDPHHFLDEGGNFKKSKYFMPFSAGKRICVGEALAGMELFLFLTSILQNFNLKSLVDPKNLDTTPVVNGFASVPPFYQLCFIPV
Assay: in vitro
Settings: recombinant CYP2C9
Measured inhibition at 10 µM values are reported for all entries that follow.
Number only, in %; omit the unit.

# annotated cases, reported inhibition at 10 µM shown
| compound | result-type | assay-result |
| --- | --- | --- |
| Fc1cccc(OC(CC2CNC2)c2ccc(Cl)c(F)c2)c1 (stereo not drawn) | inhibition at 10 µM | 11 |
| Cc1cccc(OC(CC2CNC2)c2ccc(Cl)c(F)c2)c1 (stereo not drawn) | inhibition at 10 µM | 6.8 |
| Cc1ccc(OC(CC2CNC2)c2ccc(Cl)c(F)c2)cc1 (stereo not drawn) | inhibition at 10 µM | 19 |

The value of inhibition at 10 µM measured for the compound Nc1ccc(S(=O)(=O)Nc2ccnn2-c2ccccc2)cc1 [SULFAPHENAZOLE] turned out to be 11.3

The value of inhibition at 10 µM measured for the compound Fc1cc(C(CC2CNC2)Oc2ccccc2Cl)ccc1Cl (stereo not drawn) turned out to be 18

The value of inhibition at 10 µM measured for the compound Fc1cc(C(CC2CNC2)Oc2ccccc2F)ccc1Cl (stereo not drawn) turned out to be 12

The value of inhibition at 10 µM measured for the compound Fc1cc(C(CC2CNC2)Oc2cccc(Cl)c2)ccc1Cl (stereo not drawn) turned out to be 4.2

The value of inhibition at 10 µM measured for the compound Cc1ccccc1OC(CC1CNC1)c1ccc(Cl)c(F)c1 (stereo not drawn) turned out to be 32

----------
pIC50 values recorded for Sodium-dependent noradrenaline transporter (Homo sapiens, UniProt P23975)
pIC50 field: float, defined as -log10 of concentration (mol/L).

# annotated cases, reported pIC50 shown
| compound | result-type | assay-result |
| --- | --- | --- |
| Fc1cc(C(CC2CNC2)Oc2cccc(Cl)c2)ccc1Cl (stereo not drawn) | pIC50 | 7.52 |
| Fc1ccc(OC(CC2CNC2)c2ccc(Cl)c(Cl)c2)cc1 (stereo not drawn) | pIC50 | 7.47 |
| Cc1ccccc1OC(CC1CNC1)c1ccc(Cl)c(F)c1 (stereo not drawn) | pIC50 | 7.16 |
| Fc1ccccc1OC(CC1CNC1)c1ccc(Cl)c(Cl)c1 (stereo not drawn) | pIC50 | 7.47 |
| Cc1ccc(OC(CC2CNC2)c2ccc(Cl)c(F)c2)cc1 (stereo not drawn) | pIC50 | 7.48 |
| Fc1ccc(OC(CC2CNC2)c2ccc(Cl)c(F)c2)cc1 (stereo not drawn) | pIC50 | 7.49 |
| Fc1cc(C(CC2CNC2)Oc2ccccc2F)ccc1Cl (stereo not drawn) | pIC50 | 7.80 |

# evaluate next
Summary line: Fc1cccc(OC(CC2CNC2)c2ccc(Cl)c(F)c2)c1 (stereo not drawn) , Sodium-dependent noradrenaline transporter (Homo sapiens, UniProt P23975), reported pIC50 = 7.84

Reference source for all entries: ChEMBL document CHEMBL3352322
